# Tested on: LOX IMVI melanoma
# assay-procedure: NCI tumour cell line growth inhibition, 48 h
measured-attribute: TGI (µM)

# compound, measured-attribute, value-unit, result-modifier, meas-value
rows = [
    ("CC(C)CCNc1ncnc2[nH]ncc12", "TGI", "µM", ">", 100),
    ("COc1cc(C2=NNC(c3ccc(N(C)C)cc3)C2)cc(OC)c1OC (configuration not stated)", "TGI", "µM", ">", 100),
    ("Cc1cc(-c2ncc(-c3cccnc3)cc2/C=C/c2ccccc2)cnc1-c1cccnc1", "TGI", "µM", "=", 19.7),
    ("O=C(c1c2c(cc3c1CC1(Cc4cc5c(cc4C1)CCCC5)C3)CCCC2)C(Br)Br", "TGI", "µM", "=", 3.42),
    ("Cn1ncc2c(Sc3ccc(Cl)cc3)ncnc21", "TGI", "µM", ">", 100),
    ("COC(OC)(c1ccccc1)C(Br)Br", "TGI", "µM", ">", 100),
    ("Clc1ccc(CCC(Cn2ccnc2)Sc2c(Cl)cccc2Cl)cc1 (configuration not stated)", "TGI", "µM", "=", 5.11),
    ("Cc1cc(C)c(-c2cc(O)c(-c3c(C)cc(C)cc3C)cc2O)c(C)c1", "TGI", "µM", ">", 100),
    ("C/C(=N\\O)c1ccc2cc(Br)c3ccccc3c2c1", "TGI", "µM", "=", 32.8),
    ("COC(=O)CCCC(=O)NC1=C(Nc2ccc(OC)cc2)C(=O)c2ccccc2C1=O", "TGI", "µM", "=", 92.8),
    ("NC1(C(=O)O)CCCC1C(=O)O (configuration not stated)", "TGI", "µM", ">", 100),
    ("Cn1cc(-c2nc3c(F)cc4[nH]ncc4c3c3c2CCCC3)c(C(F)(F)F)n1", "TGI", "µM", "=", 25),
]

====

# System: ACHN renal
# assay-procedure: NCI tumour cell line growth inhibition, 48 h
Below, each entry is listed with its recorded TGI.

# compound-string, TGI
measured = [
    ("COc1ccc(NCc2cc(OC)c(OC)c(OC)c2)cc1", "> 100 µM"),
    ("N=c1oc2c(O)c(O)ccc2cc1C(N)=O", "> 100 µM"),
    ("Cc1nc2cc([N+](=O)[O-])ccc2c(NCCCN(C)C)c1C", "76.7 µM"),
    ("CCCC[C@@H](C)/C=C1\\CN2CCC[C@H]2[C@@](C)(O)[C@@H]1O", "> 100 µM"),
    ("COc1ccc2c(c1)CC[C@@H]1[C@@H]2CC[C@]2(C)C(=O)/C(=C/c3ccc(C#N)cc3)C[C@@H]12", "> 100 µM"),
]

====

# System: HCT-15 colon
# assay-procedure: NCI tumour cell line growth inhibition, 48 h; in the data active means GI50 below about 0.43 µM; inactive means the rest
Classes used: Y for active, N for inactive

# molecule, class
measured = [
    ("CCCCCCCCc1cc[n+](CC(=O)c2ccc(Br)cc2)cc1", "N"),
    ("COc1cc(-c2nc3ccccc3s2)ccc1OCCCCCOc1cc2c(cc1OC)C(=O)N1CCC[C@H]1C=N2", "Y"),
    ("COC1=CC(c2ccc[nH]2)=N/C1=C\\c1[nH]c(C)c(C(=O)CCCCC(=O)NCc2ccccc2)c1C", "N"),
    ("C=C1C(=O)O[C@H]2[C@H]1CC/C(COC(=O)CCCCCCC(=O)OC/C1=C/CC[C@@]3(C)O[C@H]3[C@H]3OC(=O)C(=C)[C@@H]3CC1)=C\\CC[C@@]1(C)O[C@@H]21", "N"),
    ("COc1ccc(C2CC(c3cc(Cl)c(C)cc3O)=NN2c2ccc(S(N)(=O)=O)cc2)cc1OC (stereo unspecified)", "N"),
    ("C[C@@]12C(=O)OC(=O)[C@]1(C)[C@H]1CC[C@@H]2O1", "N"),
    ("O=S1CCN(Cc2ccc(-c3ccc4ncnc(Nc5ccc(OCc6ccccc6)c(Cl)c5)c4c3)o2)CC1", "N"),
    ("CCN1CCC(Oc2c(C#N)ncc3[nH]c4ncccc4c23)CC1", "N"),
    ("O=C(NCCCCNC(=O)OCc1ccc2c(Cl)cc(Cl)c(O)c2n1)OCc1ccc2c(Cl)cc(Cl)c(O)c2n1", "N"),
    ("Nc1cc2c([nH]c[n+]2CC#CCCl)c(SCC#CCCl)n1", "N"),
    ("Cc1cc2c([nH]1)CSc1cc(S(=O)(=O)c3ccccc3)c(=O)[nH]c1-2", "Y"),
    ("O=C1Nc2ccccc2/C1=C/C(=N/c1nnc(-c2ccccc2)s1)c1ccccc1", "N"),
    ("Cc1cc(-c2ncc(-c3cccnc3)cc2/C=C/c2ccccc2)cnc1-c1cccnc1", "N"),
    ("COc1ccc(CCn2c3c(c4c(O)cccc42)C(=O)c2ccccc2-3)cc1OC", "N"),
    ("CNc1ccc(C(=O)CC(O)CCC(C)C2OC(=O)CC(O)CC(=O)CC(O)CC(O)CC(O)CC(O)CC3(O)CC(O)C(C(=O)NCCN(C)C)C(CC(OC4OC(C)C(O)C(NC(=O)CN5CCN(CCO)CC5)C4O)/C=C/C=C/C=C/C=C\\C=C/C=C/C=C/C2C)O3)cc1 (stereo unspecified)", "N"),
    ("C=C(C)C(=O)Oc1ccc(N=Nc2ccc(C)cc2)ccc1=O", "N"),
    ("C=Cc1ccccc1 (tested in a mixture with another compound)", "N"),
    ("Cn1cc(-c2nc3c(F)cc4[nH]ncc4c3c3c2CCCC3)c(C(F)(F)F)n1", "N"),
    ("COc1cc(-c2n[nH]nc2-c2ccc3c(c2)OCCO3)cc(OC)c1OC", "Y"),
    ("NCCOc1ncccc1/C=C1\\c2ccccc2-c2ccc(F)cc21", "N"),
    ("Cc1cc(C)c(-c2cc(O)c(-c3c(C)cc(C)cc3C)cc2O)c(C)c1", "N"),
]
